The reader will find reported pIC50 values listed item by item below.
# target_entity: mPDE10A7 (Mus musculus)
# Sequence (Q8CA95 446-763 limits assumed): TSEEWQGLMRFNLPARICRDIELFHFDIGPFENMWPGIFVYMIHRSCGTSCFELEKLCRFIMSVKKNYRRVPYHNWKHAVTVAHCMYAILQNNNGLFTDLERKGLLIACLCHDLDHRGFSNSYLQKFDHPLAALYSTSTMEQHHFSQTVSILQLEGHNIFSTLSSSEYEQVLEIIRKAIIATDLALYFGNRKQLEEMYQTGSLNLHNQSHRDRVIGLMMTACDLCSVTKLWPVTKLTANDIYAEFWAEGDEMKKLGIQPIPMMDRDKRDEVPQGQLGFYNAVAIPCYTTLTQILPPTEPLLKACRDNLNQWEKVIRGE
# assay_explanation: mPDE10A7 enzyme inhibition (IMAP fluorescence polarization)
# Type: biochemical
# applied_conditions: fluorescein labeled cAMP or cGMP substrate, 30 min at room temperature
Entry type: numeric. Quantity: pIC50, the -log10 of concentration in molar units.

compound | target_entity | measured_quantity | value_reported
COc1cc2nncc(-c3cnc(NC(C)C)c(C(N)=O)c3)c2cc1OC | mPDE10A7 (Mus musculus) | pIC50 | 8.05
COc1cc2nncc(-c3cnc(NC(C)C)c(C#N)c3)c2cc1OC | mPDE10A7 (Mus musculus) | pIC50 | 7.92

Now consider the entry below.
## Task So what does the record say about pIC50 for COc1cc2nncc(-c3ccc(NC4CCOc5ccccc54)nc3)c2cc1OC (stereo not drawn) ?
## Result 7.92
